Reference for the values: PubChem BioAssay

experiment: inhibition of endothelial tube formation, primary screen, imaging, VEGF stimulated, CD31 staining, tube area, NPC library (AID 1117340); conditions: VEGF-stimulated ADSC/ECFC co-culture, at 10 µM, hits give high values
I'd appreciate it if you could supply tube area decrease values for the items below.
Report the figure in % without appending any unit label.

Inquiry: Fill in: tube area decrease of `CN1C[C@H]2c3ccccc3Oc3ccc(Cl)cc3[C@@H]2C1` is ___
Reply text: 28.3

Inquiry: Same thing, different molecule: `CNCCCC1c2ccccc2C=Cc2ccccc21`
Reply text: 40.6

Inquiry: Next: `Cc1ncc(CSSCc2cnc(C)c(O)c2CO)c(CO)c1O`
Reply text: -25.7

Inquiry: How about this molecule: `NCCNCCNCCN`
Reply text: -7.4

Inquiry: Also CC1(O)CCC(C(C)(C)O)CC1 (configuration not stated) ?
Reply text: 2.4

Inquiry: Also `COc1ccc(Cc2cnc(N)nc2N)cc1OC` , if possible.
Reply text: -28.9

Inquiry: Consider next the molecule `O=c1[nH]c(=O)n([C@H]2C[C@H](O)[C@@H](CO)O2)cc1C(F)(F)F` in the same way.
Reply text: 99.5
